test description: yeast display, Sf9 membrane polyspecificity reagent, FACS + sequencing; frameworks hold sequencing errors
recorded metric: polyreactivity (PSR sort gate)

sequence input | measured value
QVQLVESGGGLVQAGGSLRLSCAASGSIFPWYAMGWYRQAPGKEKELVAAIRWRDGRTYYADSVKGRFTISRDNAKNTVYLQMNSLKPEDTAVYYCAAVSTDKYVYGVDVYLYDYWGQGTQVTVSS | low polyreactivity
QVQLVESGGGLVQAGGSLRLSCAASGRTFGRYAMGWYRQAPGKERELVARISFTGGSTYADSVKGRFTISRDNAKNTVYLQMNSLKPEDTAVYYCNVPYYINHKFYDSPFVQRYDYWGQGTQVTVSS | low polyreactivity
QVQLVESGGGLVQAGGSLRLSCAASGLIFWLNAMGWYRQAPGKERELVAAISWTDGTTYYADSVKGRFTISRDNAKNTVYLQMNSLIPEDTAVYYCAAEQVTIEDGVYFDFNSWGQGTQVTVSS | low polyreactivity

* * *

test description: yeast display, Sf9 membrane polyspecificity reagent, FACS + sequencing; frameworks hold sequencing errors
recorded metric: polyreactivity (PSR sort gate)

sequence input | recorded metric | measured value
QVQLVESGGGLVQAGGSLRLSCAASGITISVNDMGWYRQAPGKERELVAAISSGDSTNYADSVKGRFTISRDNAKNTVYLQMNSLKPEDTAVSYCAALEGSLTGWQTYDYWGQGTQVTVSS | polyreactivity (PSR sort gate) | low polyreactivity
QVQLVESGGGLVQAGGSLGLSCAASGSTFLHDAMGWYRQAPGKERELVAAISVSGVRTYYADSVKGRFTISRDNGKNTVYLQMNSLKPEDTAVYYCAADGHHADYDFWGQGTQVTVSS | polyreactivity (PSR sort gate) | low polyreactivity
QDQHVESGGGLVQAGGSLRLSCAASGRTIGYNAMGLYRQAPGKERELVAAITSSSGSTYYADSVKGRFTISRDNAKNTVYLQMNSLKPEDRAVYYCAAYFRRLLYDYWGQGTHVTVSS | polyreactivity (PSR sort gate) | high polyreactivity
QVQLVESGGGLVQAGGSLRLSCAASGFTFAVNAMGWYRQAPGKERELVAAISWSGVSTYYADSVKRRFTISRDNAKNTVYLQMNSLKPEDTAVYYCARRRTKSYTRKYDYWGQGTQVTVSS | polyreactivity (PSR sort gate) | low polyreactivity
QVQLVESGGGLVQAGGSLRLSCAASGFTFNRYTMGWYRQAPGKERELVASISVRGSRTYYADSVKGRFTISRDNAKNTVYLQMNSLKPEDTAVYYCNAKTYVFYRLRSYYYWGQGTQVTVSS | polyreactivity (PSR sort gate) | high polyreactivity
QVQLLESGGGLVQAGGSLRLSCAASGRIFDYYAMGWYRQAPGKERELVAAISDSGDSTYYADSVKGRFTISRDNAKNTVYLQMNRLKPVDTAVYYCAAQGGWIPAQDVRSSWGYNYWGQGTQVSVSS | polyreactivity (PSR sort gate) | high polyreactivity

I am curious: what polyreactivity (PSR sort gate) value has been reported for `QVQLVESGGGLVQAGGSLRLSCAASGNILIGNVMGWYRPAPGKERELVAAITSGGDTYYADSVKGRFTITRDNAKNTVYLQMNSLKPEDTAVYYCAADRPGQPKYEYWGQGTQVTVSS` ?
low polyreactivity

Name the recorded polyreactivity (PSR sort gate) for `QVQLVESVGVLVQAGGSLRLSCAASGLIIDGYAMGWYRQAPGKERELVATITVSGTSTYYADSVKGRFTISRDNEKNTVYLQMNSLIPEDTAVYYCATDRNYGYYFVEYDHDYWGQGTQVTVSS` .
low polyreactivity

* * *

test description: yeast display, Sf9 membrane polyspecificity reagent, FACS + sequencing; frameworks hold sequencing errors
recorded metric: polyreactivity (PSR sort gate)

The cases that follow already have their polyreactivity (PSR sort gate) on record.
sequence input | polyreactivity (PSR sort gate)
QVQLVQSWRGLVQAGASLRLSCAASGRIFPGYAMGWYREAPGKERELDASSSRTGRTNYADSVKGRFTISRVNAKNTVYLQMNRLKPEYTAVYYCANASPWYFWGYDYWGQGSQVTVSS | low polyreactivity
QVQLVESGGGLVQAGGSLRLSCAASGSIYTNAMGRYRQAPGKERELVAAISWSGGRTYYADSVKGRFTISRDNAKNTVYLQMNILKPEDTAVYYCNTRGTRIASGHYYWGQGNQVTVSS | high polyreactivity
HVQLVESGGGFVQAGGSLRLSCASYGSIFSGYAMGSYRQAPAKERELVAAISNTGSTNYADSVKGRFTISRDNAKYNVYLQMNSLKPEDTAVYYCNASYSYGEMDYWGQGTQVTVSS | low polyreactivity
QVQLVESGGGLVQAGGSLRLSCASSGRTFSGYAMGWYRQAPGKERELVASITWSGGSTYYADSVKGRFTISRDNAKNTVYLQMNSLKPDDTAVYYCARDSPRGRVGFNYWGQGTQVTVSS | low polyreactivity
QVQLVESGGGLVQAGGSLRLSCAASGITFSYNDMGWYRPAPGKEREFVATIRGSTARTYNADSVKGRFTISRDNAKNTVYLQMNSLKPEDTAVYYGAAGKYWYGYDYWGQGTQVTVSS | high polyreactivity
QVQLVESGGGLDQARGSLRLSCAASGFIFQIYAMGWYRQAPGKERELVAAITSRAGSTYYADSVKGRFTISRDNAKNTVYFQMNSLKPEDTAVYFCNKVFFLPTSRAYEYWGQGTQVTVSS | high polyreactivity
QVQLVESGGGLVQAGVSLRISCAASVRTFSRYTMGWYRPAPGKERELVAANSGDGASTYYADSVKGRFTISRDNAKYSVYLQMYSLKPEDTAVYYCAARGTRYWDYRYYAYNYWGQGTQVTVSS | high polyreactivity
QVQLVESGGGLVQAGRSLRLSCAASGSTYAKYAMGWYRQAPGKEREVVAVISRTGTITRYADSEKGRFTISRDNAKNTVYLQMNSLKPEDTAVYYCAATIRAYNQHGFLYPYYYWGQGNQVTVSS | high polyreactivity

Name the recorded polyreactivity (PSR sort gate) for `QVQLVESGGGLVQAGGSLRLSCAASGFIFWGNAMGWYRQAPGKERELVAAITYSGDRTYYADSVKGRFTISRDNAKNTVYLQMNSLKPEDTAVYYCNADLALRSRYGEYDYWGQGTQVTVSS` .
high polyreactivity

* * *

test description: yeast display, Sf9 membrane polyspecificity reagent, FACS + sequencing; frameworks hold sequencing errors
recorded metric: polyreactivity (PSR sort gate)

sequence input | polyreactivity (PSR sort gate)
QVQLVESGGGLVQAGGSLRLSCAASGRTFVYYAMGWYRQAPGKERELVAAISGSGGSTYYADSVKGRFTISRDNAKNTVYLQMNSLKPEDTAVYYCNVRGPGFYWNWGQSHYYGYDYWGQGTQVTVSS | high polyreactivity
QVKLVESGGGLVQAGGRLRLSCAASGFTFPSNAMVWYRHAPGKEREMVAAISSTDSTNYADSVMGRFTISRDNAKNTVYLQMNSLNPEDTAVYYCAKRYPRYRYNTRGNDYWGQGTQVTVSS | low polyreactivity
QVQLVESGGGLVQAGGSLRLSCAASGSIFQVYAMGWYSQAPGKERELVAAITKSGVSTYYADSVKGRFTISRDNAKNTVYLQMNSLKPEDTAVYYCAAPRYVRYHRGYGFDYWGQGTQVTVSS | low polyreactivity
QVQLVESGGGLVQAGGSLRLRCAASGFPFDSYAMGWYRQAPGKERELVAAITSDGSTYYADSVKGRFTISRDNAKNTVYVLMNSLKPEDTAVYYCAADGISLYATAYDYWGQGTQVSVSS | low polyreactivity
QVQLVESGGGLVQAGGSLRLSCAASGRIFHHNAMGWYRQAPGKERELVATITKSGGSTYADSVKGRFTISRDNAKNTVYLQMNSLKPEDTAVYYCDADVTNRGTWVIYGYYYWGQGTQVTVSS | low polyreactivity
QVQLVESGGGLVQAGGSLRLSCAASGSTFSRYAMGWYRHAPGKERELVAAISSSGGGTYYADSVKGRFTISRDTAKNTVFFQMNSLKPEDTAVYYCAKSYRRRQGYYYWGQGTQVTVSS | high polyreactivity
QVQLVESGGGLVQAGGSLRLSCAASGITLAYNVMGWYRQAPGKERELVAGITRSGGSTYYADSVKGRFTISRDNAKNTVYLQMNSLKPEDTAVYYCAAGFTYLNYTPWYRFNYWGQGTQVTVSS | high polyreactivity
QVQLVESGGGLVQAGGSLRLTCAASGLIFGYNAMGWYRQAPGKEREFVAGISVIDGRTYYADSVKGRFTISRDNAKNTVYLQMISLKPEDTAVYYCAADRWYKYYFLTYGYWGQGTQVTVSS | low polyreactivity

What value of polyreactivity (PSR sort gate) has been recorded for this entry: `QVQLVESGGGLVQAGGSLRLSCAASGFIFPKNAMGWYRQAPGKERELVAAISKRGGSTYYADSVKGRFTISRDNAKNTVYLQMNSLKPEDTAVYYCADGYRTRRGLGYYYWGQGTQVTVSS`
high polyreactivity

What does the record list as polyreactivity (PSR sort gate) for `QVHLVESGGGLVQAGGRLRLSCAASGSIFPGYAMGWYRQAPGKERELVAAITFSGGSTYYADSLKGRFTISRDNAKNTVYLQMNSLKPEDTAVYYCAAPGWYGGYPSYYEYGYWGQGTQVTVSS` ?
low polyreactivity
